Form field: IC50 (one value per entry).
Target: UniProtKB Q12809
Sequence (Q12809 whole entry): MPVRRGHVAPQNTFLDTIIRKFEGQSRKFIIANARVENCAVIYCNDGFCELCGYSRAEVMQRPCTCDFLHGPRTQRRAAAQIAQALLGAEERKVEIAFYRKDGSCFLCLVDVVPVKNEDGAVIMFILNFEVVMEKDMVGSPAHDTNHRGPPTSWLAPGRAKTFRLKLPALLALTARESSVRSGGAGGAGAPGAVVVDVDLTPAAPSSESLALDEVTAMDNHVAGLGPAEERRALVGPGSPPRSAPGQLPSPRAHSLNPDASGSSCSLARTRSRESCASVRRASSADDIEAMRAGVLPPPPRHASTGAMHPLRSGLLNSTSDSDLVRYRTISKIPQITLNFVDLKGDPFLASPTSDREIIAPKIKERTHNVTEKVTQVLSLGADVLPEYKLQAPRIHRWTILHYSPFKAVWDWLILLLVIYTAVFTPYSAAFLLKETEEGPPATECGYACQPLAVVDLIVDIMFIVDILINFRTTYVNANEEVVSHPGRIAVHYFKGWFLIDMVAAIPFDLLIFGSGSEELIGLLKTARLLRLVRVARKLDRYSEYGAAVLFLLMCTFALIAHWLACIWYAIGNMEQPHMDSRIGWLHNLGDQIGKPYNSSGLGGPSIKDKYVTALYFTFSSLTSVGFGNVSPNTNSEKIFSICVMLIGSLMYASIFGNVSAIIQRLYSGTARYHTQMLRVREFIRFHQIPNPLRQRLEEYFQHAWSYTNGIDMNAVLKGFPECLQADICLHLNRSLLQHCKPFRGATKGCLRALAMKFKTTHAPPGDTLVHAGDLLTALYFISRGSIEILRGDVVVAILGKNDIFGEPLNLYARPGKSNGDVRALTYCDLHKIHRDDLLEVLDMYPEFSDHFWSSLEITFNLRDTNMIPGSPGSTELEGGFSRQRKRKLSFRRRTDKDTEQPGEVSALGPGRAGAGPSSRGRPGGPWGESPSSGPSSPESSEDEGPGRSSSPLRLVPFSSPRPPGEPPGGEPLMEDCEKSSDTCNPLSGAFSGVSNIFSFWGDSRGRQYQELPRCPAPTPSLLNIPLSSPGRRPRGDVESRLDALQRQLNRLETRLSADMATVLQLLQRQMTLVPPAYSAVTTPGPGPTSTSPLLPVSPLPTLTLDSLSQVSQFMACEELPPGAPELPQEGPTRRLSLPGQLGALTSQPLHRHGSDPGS
Assay: Inhibition of recombinant human ERG expressed in HEK293 cells after 9 mins by patch clamp method
Report only the number, with the unit µM understood.

Cc1ccc(/C=C/C(=O)N2CCN(c3ccc(C(=O)Nc4ccccc4N)cc3)CC2)cc1; 27.1

Let's switch to this compound now.
Quick check: IC50 of `COc1ccc(/C=C/C(=O)N2CCN(c3ccc(C(=O)Nc4ccccc4N)cc3)CC2)cc1` ?
25.1

###

System: PC-3
Assay: Antiproliferative activity against human PC3 cells after 48 to 72 hrs by MTT assay
Type: functional, cell-based
Form field: pIC50 (one value per entry).
In simple prose, pIC50 is minus the logarithm base ten of a concentration in moles per litre.

Consider the reported pIC50 for these molecules:
Cc1ccc(/C=C/C(=O)N2CCN(c3ccc(C(=O)Nc4ccccc4N)cc3)CC2)cc1; 5.40
Nc1ccccc1NC(=O)c1ccc(N2CCN(C(=O)/C=C/c3ccc(F)cc3)CC2)cc1; 5.67
COc1ccc(/C=C/C(=O)N2CCN(c3ccc(C(=O)Nc4ccccc4N)cc3)CC2)cc1; 5.06

Let's switch to this molecule now.
Quick check: pIC50 of `Nc1ccc(F)cc1NC(=O)c1ccc(CNC(=O)/C=C/c2cccnc2)cc1` ?
5.68
